molecular target: Histone deacetylase 2 (Homo sapiens); assay: Inhibition of human recombinant HDAC2 using Fluor de Lys green as substrate by fluorometric assay
Sequence (Q92769 whole entry): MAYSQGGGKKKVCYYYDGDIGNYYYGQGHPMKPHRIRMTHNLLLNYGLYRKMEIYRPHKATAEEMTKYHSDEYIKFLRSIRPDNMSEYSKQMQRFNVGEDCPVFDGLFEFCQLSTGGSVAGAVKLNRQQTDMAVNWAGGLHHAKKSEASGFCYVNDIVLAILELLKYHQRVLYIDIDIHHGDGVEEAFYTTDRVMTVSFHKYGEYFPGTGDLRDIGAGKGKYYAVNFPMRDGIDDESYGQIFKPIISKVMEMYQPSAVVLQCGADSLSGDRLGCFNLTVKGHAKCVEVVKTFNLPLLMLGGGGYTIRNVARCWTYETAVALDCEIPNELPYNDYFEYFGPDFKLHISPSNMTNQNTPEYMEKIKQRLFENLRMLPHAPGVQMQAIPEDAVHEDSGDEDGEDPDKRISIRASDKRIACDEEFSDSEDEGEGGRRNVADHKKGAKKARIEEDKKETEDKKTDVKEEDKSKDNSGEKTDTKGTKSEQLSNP
pIC50: −log10 of the molar value.

| STRUCTURE AS SMILES | pIC50 |
| --- | --- |
| Nc1ccccc1NC(=O)c1ccc(COc2ccc(F)cc2)cc1 | 6.24 |

====

test system: HCT-116; assay: Antiproliferative activity against human HCT116 cells after 72 hrs by CCK-8 reagent based assay; format: functional, cell-based; conditions: HCT-116, 72 h
pIC50: −log10 of the molar value.

| STRUCTURE AS SMILES | RELATION SYMBOL | pIC50 |
| --- | --- | --- |
| CC(C)c1ccc(OCc2ccc(C(=O)Nc3ccccc3N)cc2)cc1 | = | 5.34 |
| CCc1ccc(OCc2ccc(C(=O)Nc3ccccc3N)cc2)cc1 | = | 5.32 |
| Cc1ccc(OCc2ccc(C(=O)Nc3ccccc3N)cc2)cc1 | = | 5.31 |
| CCCc1ccc(OCc2ccc(C(=O)Nc3ccccc3N)cc2)cc1 | = | 5.49 |
| Nc1ccc(F)cc1NC(=O)c1ccc(CNC(=O)/C=C/c2cccnc2)cc1 | = | 5.64 |
| Nc1ccccc1NC(=O)c1ccc(COc2ccc(Cl)cc2)cc1 | = | 4.76 |
| Nc1ccccc1NC(=O)c1ccc(COc2ccc(F)cc2)cc1 | = | 5.41 |
| Nc1ccccc1NC(=O)c1ccc(COc2ccc(Br)cc2)cc1 | < | 4.49 |
| Nc1ccccc1NC(=O)c1ccc(COc2ccccc2)cc1 | = | 5.31 |
| COc1ccc(OCc2ccc(C(=O)Nc3ccccc3N)cc2)cc1 | = | 5.69 |
| CC(=O)Nc1ccc(C(=O)Nc2ccccc2N)cc1 | = | 5.11 |
| Nc1ccccc1NC(=O)c1ccc(COc2ccc([N+](=O)[O-])cc2)cc1 | < | 4.49 |
